biological target: T1, human Y4 receptor (human, UniProt P0DQD5 1-375); assay: 125I-PYY displacement, COS-7 membranes
T1 construct: also called hp25a; hp25a receptor
T1 sequence (P0DQD5 whole entry): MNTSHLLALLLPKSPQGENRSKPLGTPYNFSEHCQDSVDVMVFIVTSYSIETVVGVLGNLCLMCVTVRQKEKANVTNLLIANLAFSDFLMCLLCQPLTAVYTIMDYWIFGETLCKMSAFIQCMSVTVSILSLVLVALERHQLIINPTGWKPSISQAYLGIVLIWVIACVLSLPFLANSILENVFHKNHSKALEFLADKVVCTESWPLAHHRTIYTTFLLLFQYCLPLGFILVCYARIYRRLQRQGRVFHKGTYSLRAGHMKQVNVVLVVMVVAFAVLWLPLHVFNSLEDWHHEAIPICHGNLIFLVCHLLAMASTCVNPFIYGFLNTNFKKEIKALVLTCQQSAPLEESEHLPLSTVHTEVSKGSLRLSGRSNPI
Where no end group is shown, it is not given here.
recorded.endpoint: Ki (nM)
Answer in nM, number only, no unit symbol.

Ask: Supply measured Ki of SPEELSRYYASLRHYLNLVTRQRY-NH2 (peptide, UniProt P68005 13-36, looked up, range 13-36; also called PYY13-36, porcine) [porcine PYY13-36] in your reply.
Reply: 47
